The molecules listed here are annotated with their inhibition at 1 µg/mL.
# Test system: human liver cancer cell SMMC-7721
# Assay Procedure: Anti-tumor activity assay (MTT), SMMC-7721
# Type: cell-based
# Details: final concentration 1 μg/mL, 48 hrs, samples stored at −20° C. for one week, read-out: Inhibition rate
The response must be a number in % with no trailing unit.

Consider the worked cases shown below.
# Molecule, Assay System, Readout Unit, inhibition at 1 µg/mL
rows = [
    ("Cc1[nH]c(/C=C2\\C(=O)Nc3ccc(F)cc32)c(C)c1C(=O)NCC1CCCCN1 (centres unmarked)", "human liver cancer cell SMMC-7721", "%", 4),
    ("CC(=O)O[C@H]1C(=O)[C@@]2(C)[C@H]([C@H](OC(=O)c3ccccc3)[C@]3(O)C[C@H](OC(=O)[C@H](O)[C@@H](NC(=O)c4ccccc4)c4ccccc4)C(C)=C1C3(C)C)[C@]1(OC(C)=O)CO[C@@H]1C[C@@H]2O [Paclitaxel, reference compound]", "human liver cancer cell SMMC-7721", "%", -6.59),
    ("CCN(CC)CCNC(=O)c1c(C)[nH]c(/C=C2\\C(=O)Nc3ccc(F)cc32)c1C [Sunitinib, reference compound]", "human liver cancer cell SMMC-7721", "%", -12.3),
    ("CCN1CCCC1CNC(=O)c1c(C)[nH]c(/C=C2\\C(=O)Nc3ccc(F)cc32)c1C (centres unmarked)", "human liver cancer cell SMMC-7721", "%", -0.47),
]

(Q) Answer with the recorded inhibition at 1 µg/mL of Cc1[nH]c(/C=C2\C(=O)Nc3ccc(F)cc32)c(C)c1C(=O)NCCC1CCCN1C (centres unmarked) only.
(A) -10.8

====

The compounds listed here are annotated with their RTV.
# Tested on: human colon cancer HT-29 cells transplanted in nude mice
# Assay Procedure: Growth inhibition of human cancer HT-29 cells transplanted in nude mice
# Assay type: in vivo
# Details: relative tumor volume TVt/TV0; 30 mg/kg intragastrically once a day for 21 days
API note: the answer field is a bare number with no unit suffix.

Consider the worked cases shown below.
# Compound, Property Measured, Recorded Value
data = [
    ("Cc1[nH]c(/C=C2\\C(=O)Nc3ccc(F)cc32)c(C)c1C(=O)NCCC1CCCN1C (centres unmarked) [Compound 2]", "RTV", 1.6),
    ("CCN1CCCC1CNC(=O)c1c(C)[nH]c(/C=C2\\C(=O)Nc3ccc(F)cc32)c1C (centres unmarked) [Compound 1]", "RTV", 0.9),
]

(Q) Answer with the recorded RTV of Cc1[nH]c(/C=C2\C(=O)Nc3ccc(F)cc32)c(C)c1C(=O)NCC1CCNCC1 [Compound 4] only.
(A) 3.6

(Q) Answer with the recorded RTV of CCN(CC)CCNC(=O)c1c(C)[nH]c(/C=C2\C(=O)Nc3ccc(F)cc32)c1C [Sunitinib, reference compound] only.
(A) 4.6

(Q) Answer with the recorded RTV of Cc1[nH]c(/C=C2\C(=O)Nc3ccc(F)cc32)c(C)c1C(=O)NCC1CCCCN1 (centres unmarked) [Compound 3] only.
(A) 1.3

====

# Test system: poorly differentiated human gastric adenocarcinoma cell BGC-823
# Assay Procedure: Anti-tumor activity assay (MTT), BGC-823
# Assay type: cell-based
# Details: final concentration 0.1 μg/mL, 48 hrs, samples stored at −20° C. for one week, read-out: Inhibition rate
The compounds listed here are annotated with their inhibition at 0.1 µg/mL.
The response must be a number in % with no trailing unit.

# Compound, Recorded Value
data = [
    ("Cc1[nH]c(/C=C2\\C(=O)Nc3ccc(F)cc32)c(C)c1C(=O)NCC1CCCCN1 (centres unmarked) [Compound 3]", -5.42),
    ("Cc1[nH]c(/C=C2\\C(=O)Nc3ccc(F)cc32)c(C)c1C(=O)NCCC1CCCN1C (centres unmarked) [Compound 2]", 4.73),
]

(Q) Answer with the recorded inhibition at 0.1 µg/mL of CCN1CCCC1CNC(=O)c1c(C)[nH]c(/C=C2\C(=O)Nc3ccc(F)cc32)c1C (centres unmarked) [Compound 1] only.
(A) 14.8

(Q) Answer with the recorded inhibition at 0.1 µg/mL of CC(=O)O[C@H]1C(=O)[C@@]2(C)[C@H]([C@H](OC(=O)c3ccccc3)[C@]3(O)C[C@H](OC(=O)[C@H](O)[C@@H](NC(=O)c4ccccc4)c4ccccc4)C(C)=C1C3(C)C)[C@]1(OC(C)=O)CO[C@@H]1C[C@@H]2O [Paclitaxel, reference compound] only.
(A) 85.1

(Q) Answer with the recorded inhibition at 0.1 µg/mL of CCN(CC)CCNC(=O)c1c(C)[nH]c(/C=C2\C(=O)Nc3ccc(F)cc32)c1C [Sunitinib, reference compound] only.
(A) 9.53

====

# System: human colon cancer HT-29 cells transplanted in nude mice
# Assay Procedure: Growth inhibition of human cancer HT-29 cells transplanted in nude mice
# Format: in vivo
# Details: nude mice with HT-29 tumor; d21; 30 mg/kg intragastrically once a day for 21 days
The compounds listed here are annotated with their Body weight d21.

# Compound, Body weight d21
measured = [
    ("CCN(CC)CCNC(=O)c1c(C)[nH]c(/C=C2\\C(=O)Nc3ccc(F)cc32)c1C [Sunitinib, reference compound]", "21.0 ± 1.9 g"),
    ("Cc1[nH]c(/C=C2\\C(=O)Nc3ccc(F)cc32)c(C)c1C(=O)NCCC1CCCN1C (centres unmarked)", "19.7 ± 1.6 g"),
    ("CCN1CCCC1CNC(=O)c1c(C)[nH]c(/C=C2\\C(=O)Nc3ccc(F)cc32)c1C (centres unmarked)", "21.5 ± 1.3 g"),
    ("Cc1[nH]c(/C=C2\\C(=O)Nc3ccc(F)cc32)c(C)c1C(=O)NCC1CCCCN1 (centres unmarked)", "20.8 ± 2.3 g"),
]

For the next question, use this compound.
(Q) Answer with the recorded Body weight d21 of Cc1[nH]c(/C=C2\C(=O)Nc3ccc(F)cc32)c(C)c1C(=O)NCC1CCNCC1 only.
(A) 20.3 ± 1.5 g

====

# System: human lung cancer cell A549
# Assay Procedure: Anti-tumor activity assay (MTT), A549
# Assay type: cell-based
# Details: final concentration 0.1 μg/mL, 48 hrs, samples stored at −20° C. for one week, read-out: Inhibition rate
Property Measured: inhibition at 0.1 µg/mL (%)
The response must be a number in % with no trailing unit.

(Q) Enter measured inhibition at 0.1 µg/mL, system human lung cancer cell A549, for the compound shown: CC(=O)O[C@H]1C(=O)[C@@]2(C)[C@H]([C@H](OC(=O)c3ccccc3)[C@]3(O)C[C@H](OC(=O)[C@H](O)[C@@H](NC(=O)c4ccccc4)c4ccccc4)C(C)=C1C3(C)C)[C@]1(OC(C)=O)CO[C@@H]1C[C@@H]2O [Paclitaxel, reference compound]
(A) 20.1

(Q) Enter measured inhibition at 0.1 µg/mL, system human lung cancer cell A549, for the compound shown: Cc1[nH]c(/C=C2\C(=O)Nc3ccc(F)cc32)c(C)c1C(=O)NCCC1CCCN1C (centres unmarked)
(A) 0.59

====

The compounds listed here are annotated with their inhibition at 10 µg/mL.
# Tested on: Human cervical cancer cell Hela
# Assay Procedure: Anti-tumor activity assay (MTT), Hela
# Assay type: cell-based
# Details: final concentration 10 μg/mL, 48 hrs, samples freshly prepared with DMSO, read-out: Inhibition rate
The response must be a number in % with no trailing unit.

Consider the worked cases shown below.
# Compound, Recorded Value
data = [
    ("CC(=O)O[C@H]1C(=O)[C@@]2(C)[C@H]([C@H](OC(=O)c3ccccc3)[C@]3(O)C[C@H](OC(=O)[C@H](O)[C@@H](NC(=O)c4ccccc4)c4ccccc4)C(C)=C1C3(C)C)[C@]1(OC(C)=O)CO[C@@H]1C[C@@H]2O [Paclitaxel, reference compound]", 72.7),
    ("CCN(CC)CCNC(=O)c1c(C)[nH]c(/C=C2\\C(=O)Nc3ccc(F)cc32)c1C [Sunitinib, reference compound]", 99.2),
    ("CCN1CCCC1CNC(=O)c1c(C)[nH]c(/C=C2\\C(=O)Nc3ccc(F)cc32)c1C (centres unmarked) [Compound 1]", 97.4),
    ("Cc1[nH]c(/C=C2\\C(=O)Nc3ccc(F)cc32)c(C)c1C(=O)NCC1CCCCN1 (centres unmarked) [Compound 3]", 98),
]

For the next question, use this compound.
(Q) Answer with the recorded inhibition at 10 µg/mL of Cc1[nH]c(/C=C2\C(=O)Nc3ccc(F)cc32)c(C)c1C(=O)NCCC1CCCN1C (centres unmarked) [Compound 2] only.
(A) 97.2

====

# System: human colon cancer HT-29 cells transplanted in nude mice
# Assay Procedure: Growth inhibition of human cancer HT-29 cells transplanted in nude mice
# Assay type: in vivo
# Details: nude mice with HT-29 tumor; d0, time of administration in separate cages; 30 mg/kg group
Property Measured: Body weight d0 (g)
The response must be a number in g with no trailing unit.

Consider the worked cases shown below.
# Compound, Body weight d0 (g)
rows = [
    ("Cc1[nH]c(/C=C2\\C(=O)Nc3ccc(F)cc32)c(C)c1C(=O)NCC1CCNCC1", 20.0),
    ("CCN(CC)CCNC(=O)c1c(C)[nH]c(/C=C2\\C(=O)Nc3ccc(F)cc32)c1C [Sunitinib, reference compound]", 20.4),
    ("Cc1[nH]c(/C=C2\\C(=O)Nc3ccc(F)cc32)c(C)c1C(=O)NCC1CCCCN1 (centres unmarked)", 20.6),
]

(Q) Answer with the recorded Body weight d0 of CCN1CCCC1CNC(=O)c1c(C)[nH]c(/C=C2\C(=O)Nc3ccc(F)cc32)c1C (centres unmarked) only.
(A) 20.2

(Q) Answer with the recorded Body weight d0 of Cc1[nH]c(/C=C2\C(=O)Nc3ccc(F)cc32)c(C)c1C(=O)NCCC1CCCN1C (centres unmarked) only.
(A) 19.7

Ref: patent US8829039B2
